B1: RSPH3 (parent)
chain: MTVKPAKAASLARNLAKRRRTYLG

- Variants of: B1
- TEST_DETAILS: protein stability index of a GFP-peptide fusion (GPS, HEK-293T) (PSI 1-6); higher = more stable;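 further: lentivirally expressed fusions sorted by FACS into six bins by GFP to DsRed ratio, PSI derived from sequencing read proportions per bin multiplied by bin number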
- COND: c terminus: a fixed tail appended
Reported protein stability index is given for each of the following variants.

# VAR, protein stability index
rows = [
    ("V3S", 2.62),
    ("T21N", 2.98),
    ("S10M", 2.02),
    ("K4D", 2.97),
    ("L11V", 3.3),
    ("R13H", 2.42),
    ("T21V", 2.83),
    ("A12N", 2.49),
    ("A16E", 2.15),
    ("R13G", 2.86),
    ("L23N", 3.5),
    ("N14D", 3.08),
    ("P5Y", 2.14),
    ("L23K", 3.5),
    ("M1S", 3.02),
    ("Y22I", 3.37),
    ("P5G", 2.75),
    ("R13D", 2.85),
    ("L15Y", 2.84),
    ("A12V", 2.16),
    ("N14K", 2.4),
    ("A8F", 2.03),
]
